# System: Plasmodium berghei
# method description: Screen against P. berghei liver stage (PbLuc), transformed with Luciferase, at 2uM
# Type: functional, HepG2
# experimental context: tested at 2 uM
The campaign covered roughly 68,000 compounds. About 2,700 (4%) showed an effect of 50% or more. The list comes from a sample in which strong results are over-represented; it also holds close analogues and randomly drawn compounds.
attribute measured: INHIBITION (%)
The reply should be a number in %, with the unit left off.

These recorded examples may help you get a feel for the data.
compound="CC(=O)N1CC(=O)N(c2cnn(C)c2)CC12CCN(CC1CC1)C2 (centres undefined)" study_target="Plasmodium berghei" attribute_measured=INHIBITION recorded_result=-7.82
compound=CC(=O)N1CCCn2nc(CNS(=O)(=O)N3CCC(C)CC3)cc2C1 study_target="Plasmodium berghei" attribute_measured=INHIBITION recorded_result=47.62
compound=Cc1ccc(C(=O)N(C)Cc2cscn2)c(=O)[nH]1 study_target="Plasmodium berghei" attribute_measured=INHIBITION recorded_result=44.39

Request: # returns recorded INHIBITION (system: Plasmodium berghei) for NC(=O)N1CCCN(CC(=O)NCCc2c(F)cccc2F)CC1
Result: 19.12

Request: And then CC(C)N1CCOCC2(CCN(c3cnccn3)CC2)C1 , what is it?
Result: -10.43

Request: And then O=C1CCCN1CCCNCc1cc(O)c2cccc(F)c2n1 , what is it?
Result: 53.12

Request: And then Cn1nc(C(C)(C)C)cc1NC(=O)Cn1ccnc1 , what is it?
Result: -24.02

Request: And then CS(=O)(=O)Cc1nc(CN2CCC(C(F)(F)F)CC2)cs1 , what is it?
Result: 62.51
